# System: UO-31 renal
# run-description: NCI-60 one-dose screen, 48 h (100 = growth as untreated, 0 = no growth, -100 = all killed)
# study-conditions: 10 µM
The panel holds about 83,000 compounds, 20% with a hit somewhere; the sample as a whole holds those more often.
Entries and their growth
measure: growth (%)

COc1ccc(/C=C/c2nnc(/C=C/c3ccc(OC)c(OC)c3)o2)cc1OC	37.4
COc1ccc(C(=O)N2C=Cc3ccccc3C2C#N)cc1 (centres undefined)	73.9
O=S(=O)(NCCCNc1nccc(-c2cn(-c3ccccc3)nc2-c2ccc(Cl)c(O)c2)n1)c1ccccc1	45.9
C=CCN(CC=C)C(=O)[C@H](CC)[C@@H]1CC[C@@H](C)[C@@H]([C@H](C)[C@@H](O)[C@@H](C)C(=O)[C@H](CC)C2O[C@]3(C=CC(=O)[C@]4(CC[C@@](C)([C@H]5CC[C@](O)(CC)[C@H](C)O5)O4)O3)[C@H](C)C[C@@H]2C)O1 (some centres undefined)	0.66
